Molecular target: Cytochrome P450 2D6 (Homo sapiens) (UniProt P10635)
Sequence (P10635 whole entry, looked up): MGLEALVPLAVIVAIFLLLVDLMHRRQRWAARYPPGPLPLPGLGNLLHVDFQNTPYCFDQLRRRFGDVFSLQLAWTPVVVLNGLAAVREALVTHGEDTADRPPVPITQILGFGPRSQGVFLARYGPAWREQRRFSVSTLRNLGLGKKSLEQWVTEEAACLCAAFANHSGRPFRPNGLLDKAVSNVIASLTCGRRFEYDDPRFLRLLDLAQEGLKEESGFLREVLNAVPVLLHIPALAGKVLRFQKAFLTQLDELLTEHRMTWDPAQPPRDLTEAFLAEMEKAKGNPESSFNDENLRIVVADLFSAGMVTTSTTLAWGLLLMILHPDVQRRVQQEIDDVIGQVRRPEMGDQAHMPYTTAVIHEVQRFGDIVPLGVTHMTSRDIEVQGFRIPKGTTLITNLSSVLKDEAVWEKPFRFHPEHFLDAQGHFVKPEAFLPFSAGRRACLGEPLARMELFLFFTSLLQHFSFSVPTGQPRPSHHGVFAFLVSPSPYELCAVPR
Test: Cytochrome P450 Family 2 Subfamily D Member 6 (CYP2D6) small molecule antagonists: luciferase reporter qHTS assay (AID 1671196); also: nearly all actives have a fitted effect of over 50% in size; also: potency is read from the fitted curve at half-maximal effect
Settings: P450-Glo CYP2D6 enzyme assay, luciferin luminescence, 1 h; series mostly up to 115 µM
Inconclusive results are not listed. Active and inactive are the calls of the source. Calls follow the shape of the dose curve; as a rule, active = well fitted inhibition curve with a large enough effect in the repeat runs; inconclusive = weak or mixed curves; inactive = no such curve, though single readings can be large or run the other way.
RECORDED_METRIC: Potency

1) CC(C)(C)C(=O)OCOP(=O)(COCCn1cnc2c(N)ncnc21)OCOC(=O)C(C)(C)C; inactive
2) COc1ccc(C(C)=O)cc1; inactive
3) CCOc1ccc(NC(=O)CC(C)=O)cc1; 35.6 µM (active)
